EXPERIMENTAL_TARGET: UniProt:P35414
Sequence (P35414 whole entry): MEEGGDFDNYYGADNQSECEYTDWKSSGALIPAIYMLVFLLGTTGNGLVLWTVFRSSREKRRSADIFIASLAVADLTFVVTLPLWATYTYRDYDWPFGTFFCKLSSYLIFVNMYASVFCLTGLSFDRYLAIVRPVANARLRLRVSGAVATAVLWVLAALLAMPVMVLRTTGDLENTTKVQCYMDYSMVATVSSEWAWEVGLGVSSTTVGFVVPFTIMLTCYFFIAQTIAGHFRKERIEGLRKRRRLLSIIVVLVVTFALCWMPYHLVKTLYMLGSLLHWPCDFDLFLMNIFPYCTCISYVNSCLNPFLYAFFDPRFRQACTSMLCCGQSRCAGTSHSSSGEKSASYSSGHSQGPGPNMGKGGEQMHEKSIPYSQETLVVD
PROTOCOL: [35S]GTPγS binding assay on membranes from CHO cells stably expressing human APJ receptor
CONDITIONS: membranes of CHO cells stably expressing human APJ receptor, means of several independent experiments, read-out: Activity hAPJ SPA EC50 IP
MEASUREMENT_NAME: log10 of EC50 (log10 of the value in nM)
Plainly stated, the numbers are log10 of EC50 given in nM.

The compound COc1cccc(OC)c1-n1c(NS(=O)(=O)[C@H](C)Cc2ccc(C#N)cn2)nnc1-c1ccc(C)o1 (single isomer, unassigned) [Example 12.0] , when measured on UniProt:P35414, yielded log10 of EC50 of -0.82

The compound `COCCO[C@H](c1ncc(C)cn1)[C@H](C)S(=O)(=O)Nc1nnc(-c2ccc(C)o2)n1-c1c(OC)cccc1OC` , when measured on UniProt:P35414, yielded log10 of EC50 of -0.82

The compound `COc1cccc(OC)c1-n1c(NS(=O)(=O)CCc2ncc(Cl)cc2C2=CCNCC2)nnc1-c1ccco1` , when measured on UniProt:P35414, yielded log10 of EC50 of -0.57

The compound `CO[C@H](c1ncc(Cl)cn1)[C@H](C)S(=O)(=O)Nc1nnc(-c2ccc(C)o2)n1[C@H]1CCCOC1` , when measured on UniProt:P35414, yielded log10 of EC50 of 1.11

The compound COc1cccc(OC)c1-n1c(NS(=O)(=O)[C@@H]2COCC[C@@H]2O)nnc1-c1ccc(C)o1 (single isomer, unassigned) [Example 405.0] , when measured on UniProt:P35414, yielded log10 of EC50 of 1.81

The compound COc1cccc(OC)c1-n1c(NS(=O)(=O)[C@@H](C)Cc2ncc(Cl)cc2NC(C)=O)nnc1-c1ccco1 (racemic) , when measured on UniProt:P35414, yielded log10 of EC50 of -0.72
